# PROTOCOL_SUMMARY: Acid stability test (half-life in 0.01 N HCl)
# Assay type: physicochemical
# SETTINGS: buffer; 0.01 N HCl (pH 2.0), 30% acetonitrile, initial 50 μg/ml, 37° C., HPLC; read-out: t1/2, stability in acidic solution

CHEM_SMILES	UNITS_SYMBOL	half-life at 50 μg/ml
C[C@@H](S[C@H]1CO[C@H](/C=C/C=C/c2ccc(C#N)cc2F)OC1)[C@](O)(Cn1cncn1)c1ccc(F)cc1F	min	6.4
